Cited source for all entries: patent US20050192279A1

Biological target: α4β1 (Homo sapiens, UniProt P05556+P13612)
Construct: Ramos Cell Adhesion Assay (α4β1 Mediated Adhesion/VCAM-1); endogenous in cells; host or cells: Ramos cells
Sequence (P05556 21-798, one chain of several): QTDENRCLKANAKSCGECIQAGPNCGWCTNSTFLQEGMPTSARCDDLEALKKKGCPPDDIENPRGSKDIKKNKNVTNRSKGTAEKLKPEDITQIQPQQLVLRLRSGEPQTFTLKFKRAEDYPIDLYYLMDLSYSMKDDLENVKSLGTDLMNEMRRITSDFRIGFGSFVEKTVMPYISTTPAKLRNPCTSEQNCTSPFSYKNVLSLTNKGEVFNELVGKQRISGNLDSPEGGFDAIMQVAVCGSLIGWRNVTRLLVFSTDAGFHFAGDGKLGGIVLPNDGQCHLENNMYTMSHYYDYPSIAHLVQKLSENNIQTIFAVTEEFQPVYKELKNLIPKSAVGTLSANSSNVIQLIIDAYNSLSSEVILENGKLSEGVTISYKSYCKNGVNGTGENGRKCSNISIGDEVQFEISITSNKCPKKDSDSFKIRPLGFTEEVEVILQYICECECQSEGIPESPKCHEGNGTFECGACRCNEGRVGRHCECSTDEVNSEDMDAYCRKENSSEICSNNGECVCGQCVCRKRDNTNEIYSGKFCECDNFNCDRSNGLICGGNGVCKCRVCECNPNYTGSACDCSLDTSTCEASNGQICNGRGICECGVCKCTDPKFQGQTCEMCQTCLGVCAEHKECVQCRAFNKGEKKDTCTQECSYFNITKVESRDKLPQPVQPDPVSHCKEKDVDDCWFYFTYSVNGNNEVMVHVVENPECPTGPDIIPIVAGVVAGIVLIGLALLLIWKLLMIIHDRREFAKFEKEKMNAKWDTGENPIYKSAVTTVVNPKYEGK
Experiment: Ramos Cell Adhesion Assay (α4β1 Mediated Adhesion/VCAM-1)
Assay type: cell-based
Conditions: Ramos cell adhesion to hVCAM-1; read-out: α4β1 IC50
pIC50: −log10 of the molar value.
The molecules listed here are annotated with their pIC50.
recordedEndpoint: pIC50

molecule	recordedEndpoint	observedValue
COc1cnn(C)c(=O)c1-c1ccc(C[C@H](NC(=O)C23CCC(CC2)CN3C(=O)CCc2ccco2)C(=O)O)cc1 [Cpd 115]	pIC50	7.20
COc1cnn(C)c(=O)c1-c1ccc(C[C@H](NC(=O)OC2CCCCC2)C(=O)O)cc1 [Cpd 208]	pIC50	< 5.30
COc1cnn(C)c(=O)c1-c1ccc(CC(NC(=O)C(C(C)C)n2c(C)ccc2C)C(=O)O)cc1 (stereo not shown) [Cpd 215]	pIC50	< 5.30
COc1cnn(C)c(=O)c1-c1ccc(C[C@H](NC(=O)CN(C)C(=O)OC(C)(C)C)C(=O)O)cc1 [Cpd 157]	pIC50	< 5.30

###

Molecular target: α4β1 (Homo sapiens, UniProt P05556+P13612)
Construct: Ramos Cell Adhesion Assay (α4β1 Mediated Adhesion/VCAM-1); endogenous in cells; host or cells: Ramos cells
Experiment: Ramos Cell Adhesion Assay (α4β1 Mediated Adhesion/VCAM-1)
Assay type: cell-based
Details: Ramos cell adhesion to hVCAM-1; read-out: α4β1 IC50

structureString	qualifyingSign	IC50 / nM
COc1cnn(C)c(=O)c1-c1ccc(C[C@H](NC(=O)C2(c3ccc(F)cc3)CCCC2)C(=O)O)cc1	>	5000
COc1cnn(CCN2CCOCC2)c(=O)c1-c1ccc(C[C@H](NC(=O)[C@H](NC(C)C)C(C)C)C(=O)O)cc1	>	5000
COc1cnn(C)c(=O)c1-c1ccc(C[C@H](NC(=O)[C@@H]2C3CCC(CC3)N2C(=O)CCC(C)C)C(=O)O)cc1	=	272
COc1cnn(C)c(=O)c1-c1ccc(C[C@H](NC(=O)[C@@H]2C3CCC(CC3)N2C(=O)Cc2ccsc2)C(=O)O)cc1	=	44

###

Molecular target: human α4β7 integrin (Homo sapiens, UniProt P13612+P26010)
Construct: expressed in transfected cells; host or cells: K562 cells, stably transfected
Sequence (P13612 34-1032): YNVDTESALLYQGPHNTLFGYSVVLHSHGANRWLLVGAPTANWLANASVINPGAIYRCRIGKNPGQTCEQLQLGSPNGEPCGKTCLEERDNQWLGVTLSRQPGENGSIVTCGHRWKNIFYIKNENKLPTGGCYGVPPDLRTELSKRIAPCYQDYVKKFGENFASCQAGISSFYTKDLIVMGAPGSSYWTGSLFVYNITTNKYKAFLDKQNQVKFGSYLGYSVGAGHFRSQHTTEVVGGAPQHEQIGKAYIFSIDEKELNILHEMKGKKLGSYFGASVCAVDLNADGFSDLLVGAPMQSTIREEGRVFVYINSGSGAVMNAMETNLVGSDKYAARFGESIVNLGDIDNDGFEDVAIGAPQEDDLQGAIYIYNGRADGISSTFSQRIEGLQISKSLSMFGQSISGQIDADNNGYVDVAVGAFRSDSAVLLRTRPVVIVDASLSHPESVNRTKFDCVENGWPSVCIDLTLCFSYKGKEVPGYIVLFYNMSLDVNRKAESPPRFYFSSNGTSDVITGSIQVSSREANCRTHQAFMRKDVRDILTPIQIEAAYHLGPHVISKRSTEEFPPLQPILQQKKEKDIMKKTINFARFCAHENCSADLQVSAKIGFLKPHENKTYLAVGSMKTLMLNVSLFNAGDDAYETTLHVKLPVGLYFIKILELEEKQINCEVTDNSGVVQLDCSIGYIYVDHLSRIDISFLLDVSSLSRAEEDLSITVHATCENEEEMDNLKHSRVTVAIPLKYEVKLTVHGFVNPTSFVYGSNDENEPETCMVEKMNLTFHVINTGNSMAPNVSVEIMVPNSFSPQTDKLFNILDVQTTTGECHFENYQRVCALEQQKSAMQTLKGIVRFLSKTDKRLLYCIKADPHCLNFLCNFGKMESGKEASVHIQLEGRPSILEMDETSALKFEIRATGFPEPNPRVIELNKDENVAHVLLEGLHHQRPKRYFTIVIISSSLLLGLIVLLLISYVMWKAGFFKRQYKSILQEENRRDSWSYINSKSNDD
Sequence (P26010 20-798): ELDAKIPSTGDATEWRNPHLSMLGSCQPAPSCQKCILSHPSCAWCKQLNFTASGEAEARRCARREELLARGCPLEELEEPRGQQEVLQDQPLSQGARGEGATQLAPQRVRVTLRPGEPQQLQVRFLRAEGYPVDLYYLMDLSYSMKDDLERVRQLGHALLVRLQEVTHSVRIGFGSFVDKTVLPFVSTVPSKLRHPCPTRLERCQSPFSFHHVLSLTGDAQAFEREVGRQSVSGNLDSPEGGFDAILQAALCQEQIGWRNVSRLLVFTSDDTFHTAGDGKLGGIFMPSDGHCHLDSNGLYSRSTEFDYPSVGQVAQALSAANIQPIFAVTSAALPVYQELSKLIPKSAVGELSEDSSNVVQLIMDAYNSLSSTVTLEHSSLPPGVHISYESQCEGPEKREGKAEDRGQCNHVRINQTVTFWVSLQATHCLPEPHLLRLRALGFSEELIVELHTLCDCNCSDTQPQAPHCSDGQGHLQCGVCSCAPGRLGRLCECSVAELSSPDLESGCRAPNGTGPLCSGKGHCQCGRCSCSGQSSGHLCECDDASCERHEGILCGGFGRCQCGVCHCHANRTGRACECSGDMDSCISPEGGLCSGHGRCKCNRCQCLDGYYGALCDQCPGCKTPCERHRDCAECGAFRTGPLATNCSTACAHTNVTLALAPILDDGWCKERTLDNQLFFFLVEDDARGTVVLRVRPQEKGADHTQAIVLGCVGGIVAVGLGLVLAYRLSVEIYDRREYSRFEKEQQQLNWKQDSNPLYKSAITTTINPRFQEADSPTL
Experiment: α4β7-K562 Cell Adhesion Assay (α4β7 Mediated Adhesion/MAdCAM-1)
Format: cell-based
Settings: α4β7-K562 cell adhesion to hMAdCAM-1; read-out: α4β7 IC50
pIC50: −log10 of the molar value.
Listed next: entries and their corresponding pIC50.

structureString	targetOrSystem	pIC50
COc1cnn(C)c(=O)c1-c1ccc(C[C@H](NC(=O)c2cccnc2O)C(=O)O)cc1	human α4β7 integrin (Homo sapiens, UniProt P13612+P26010)	6.00
Cn1ncc(N)c(-c2ccc(C[C@H](NC(=O)c3c(Cl)cccc3Cl)C(=O)O)cc2)c1=O	human α4β7 integrin (Homo sapiens, UniProt P13612+P26010)	7.89
COc1cnn(C)c(=O)c1-c1ccc(C[C@H](NC(=O)OCc2ccccc2)C(=O)O)cc1	human α4β7 integrin (Homo sapiens, UniProt P13612+P26010)	6.24
COc1cnn(C)c(=O)c1-c1ccc(C[C@H](NC(=O)[C@@H]2C3CCC(CC3)N2C(=O)Cc2ccsc2)C(=O)O)cc1	human α4β7 integrin (Homo sapiens, UniProt P13612+P26010)	7.06
